meta.source: PubChem BioAssay AID1259407

- Test system: CCRIS mutagenicity, Ames/micronucleus/aberration tests
- assay protocol: CCRIS mutagenicity studies
- condition notes: Test System: AMES SALMONELLA TYPHIMURIUM; Strain/Indicator: TA104; Metabolic Activation: RAT, LIVER, S-9, AROCLOR 1254; Method: PREINCUBATION
Active and inactive are the calls of the source. No rule for the calls is given here.
Parameter call: string, one of yes = active, no = inactive

O=C/C=C/C=C/C=O    no

Please let me know the test result on file for CCCCN(CCCC)N=O .
yes

Please let me know the test result on file for O=NN1CCOCC1 .
yes

Please let me know the test result on file for CCCN(CCC)N=O .
yes

Please let me know the test result on file for CNCCCC(=O)O .
no

====

- Test system: CCRIS mutagenicity, Ames/micronucleus/aberration tests
- assay protocol: CCRIS mutagenicity studies
- condition notes: Test System: CHINESE HAMSTER V-79; Strain/Indicator: V-79/OUABAIN; Metabolic Activation: NONE; Method: STANDARD PLATE
Active and inactive are the calls of the source. How the calls were made is not given here.
experimental endpoint: mutagenic call

COc1cc2c(c3oc(=O)c4c(c13)CCC4=O)[C@@H]1C=CO[C@@H]1O2    inactive; negative
O=C(O)CN(CC(=O)O)C1C[C@H]1N(CC(=O)O)CC(=O)O (some centres undefined)    active; positive
CCCCC/C=C/C=O    inactive; negative
O=C1[C@H]2CC=CC[C@H]2C(=O)N1SC(Cl)(Cl)Cl    active; positive

====

- System: CCRIS mutagenicity, Ames/micronucleus/aberration tests
- assay protocol: CCRIS mutagenicity studies
- condition notes: Test System: AMES SALMONELLA TYPHIMURIUM; Strain/Indicator: TA1537; Metabolic Activation: HAMSTER, LIVER, S-9, AROCLOR 1254 (10%); Method: PREINCUBATION
Activity calls are given as the source filed them. No rule for the calls is given here.
Parameter call: string, one of 1 = active, 0 = inactive

CC(=O)/C=C/c1ccc2c(c1)OCO2    0
CC(C)CON=O    0
CN(C)CCN(Cc1ccsc1)c1ccccn1    0
CCCCOC(=O)c1ccccc1C(=O)OCc1ccccc1    0
CCCCC(CC)COS(=O)(=O)O (centres undefined)    0
COc1ccc(C(=O)c2ccccc2O)c(O)c1    1
ClC1=C(Cl)[C@]2(Cl)[C@@H]3[C@H]4C[C@H]([C@@H]5O[C@H]45)[C@@H]3[C@@]1(Cl)C2(Cl)Cl    0
CCCCCCCCC/C=C/CC1CC(=O)OC1=O (centres undefined)    0

Please let me know the test result on file for CC(=O)Nc1ccc(O)cc1 .
0

Please let me know the test result on file for CC(C)(C)OOC(=O)c1ccccc1 .
1

Please let me know the test result on file for C=C(C)C(=O)OC(C)C .
0

Please let me know the test result on file for CCN(CC)C(=S)SSC(=S)N(CC)CC .
0

Please let me know the test result on file for Nc1ccc(Oc2ccc(N)cc2)cc1 .
1

Please let me know the test result on file for CC(O)c1ccccc1 (centres undefined) .
0

====

- Test system: CCRIS mutagenicity, Ames/micronucleus/aberration tests
- assay protocol: CCRIS mutagenicity studies
- condition notes: Test System: UDS RODENT HEPATOCYTES; Strain/Indicator: THY INCORP (NON-S-PHASE); Metabolic Activation: NONE; Method: AUTORADIOGRAPHY
Active and inactive are the calls of the source. How the calls were made is not given here.
Parameter call: string, one of Yes = active, No = inactive

Please let me know the test result on file for O=C/C=C/C=C/C=O .
No

Please let me know the test result on file for Fc1cccc2ncccc12 .
Yes

Please let me know the test result on file for Nc1cc(Cl)cc(Cl)c1 .
No

Please let me know the test result on file for O=C(O)C(F)(F)C(F)(F)C(F)(F)C(F)(F)C(F)(F)C(F)(F)C(F)(F)C(F)(F)C(F)(F)F .
No

Please let me know the test result on file for CNc1ccccc1C(=O)OC .
No
